IC50 for UniProt Q13822, merged from several publications.

These recorded examples may help you get a feel for the data.
[[record]]
compound = "CCCCC1CN(CCOC)C(=O)c2cc(-c3ccc(Cl)cc3)nn21 (centres unmarked)"
target_or_test_system = "UniProt Q13822"
reported_metric = "IC50"
obs_value = "100 to 1000 nM"

[[record]]
compound = "CS(=O)(=O)C1CN(C(=O)c2cnc(NCc3cc(OC(F)(F)F)cc(C4CC4)c3)nc2)C1"
target_or_test_system = "UniProt Q13822"
reported_metric = "IC50"
obs_value = "100 to 1000 nM"

[[record]]
compound = "O=C(c1cnc(OC2CCCOC2)c(C2CC2)c1)N1C[C@@H]2CN(C(=O)[C@@H]3CCc4[nH]nnc4C3)C[C@H]2C1 (some centres unmarked)"
target_or_test_system = "UniProt Q13822"
reported_metric = "IC50"
obs_value = "11 nM"

[[record]]
compound = "CC(C)c1cc(Cl)ccc1OCC(=O)N1CCC2(CC1)CN(C(=O)c1ccc3[nH]nnc3c1)C2"
target_or_test_system = "UniProt Q13822"
reported_metric = "IC50"
obs_value = "8 nM"

[[record]]
compound = "CCCCCC1CN(CC(=O)N2CCCC(c3ccccc3)C2)C(=O)c2cc(-c3ccc(Cl)cc3)nn21 (centres unmarked)"
target_or_test_system = "UniProt Q13822"
reported_metric = "IC50"
obs_value = "100 to 1000 nM"

[[record]]
compound = "O=C(c1cnc(NC2Cc3ccc(Br)cc3C2)nc1)N1CCC12COC2 (centres unmarked)"
target_or_test_system = "UniProt Q13822"
reported_metric = "IC50"
obs_value = "< 100 nM"


Observed IC50 on UniProt Q13822, entry Cn1c(COc2ccc(N3CCOCC3)cc2C(C)(C)C)n[nH]c1=O , equals 1600 nM

Observed IC50 on UniProt Q13822, entry CC(=O)Nc1cc(Cl)ccc1-c1cc2n(n1)[C@@H](C(F)(F)F)CN(Cc1ccc(C#N)cc1)C2=O , equals 10 to 100 nM

###

IC50 for UniProt Q13822, merged from several publications.
reported metric: IC50 (nM)

[[record]]
item_smiles = "Cc1cc(OCc2cc(C(=O)N(C)C)[nH]n2)c(C(C)(C)C)cc1Cl"
target_or_test_system = "UniProt Q13822"
reported_metric = "IC50"
unit_of_measure = "nM"
obs_value = 15


(A) Cc1cc(OCc2cc[nH]n2)c(C(C)(C)C)cc1C#N
(B) Cc1cc(OCc2n[nH]c(=O)n2C)c(-c2cc(OCC(=O)N(C)C)ccc2F)cc1Cl
(C) O=C(OCc1csc(Br)c1)N1CCC2(CC1)CN(C(=O)c1ccc3[nH]nnc3c1)C2
(D) O=C(NCc1cnn[nH]1)C1CC2(CCN(C(=O)OCc3cc(Cl)cc(Cl)c3)CC2)C1
(E) Cc1cc(OCC(=O)N2C[C@@H]3CN(C(=O)[C@@H]4CCc5[nH]nnc5C4)C[C@H]3C2)c(C(C)C)cc1C#N
Prompt: List from greatest to least IC50. Your task in answering is to list the labels in the requested order.
Completion: C, D, A, B, E

(I) Cn1c(C(=O)N2C[C@H]3CN(C(=O)OCc4ccc(OC(F)(F)F)cc4)C[C@@H]3C2)ccc1S(N)(=O)=O
(II) Cc1cc(OCc2n[nH]c3ncccc23)c(C(C)(C)C)cc1S(C)(=O)=O
Prompt: Between I and II , whose recorded IC50 is greater? Mark your answer with the label of the selected entry.
Completion: II
(II: 215 nM, I: 58.5 nM)
